# Tested target: humanized development candidate monoclonal antibody IgG4 (hIgG4)
# Procedure details: Gyrolab, mAb as capture, hIgG4 5000 ng/ml
Metric name: Av. Resp.
Answers are plain numbers.

Consider the worked cases shown below.
{"Binder": "rabbit anti-human IgG monoclonal antibody clone 11F9 (antibody, V domains shown) VH: QQQLEESGGGLVQPEGSLTLTCIASGFSFSSSHWICWVRQAPGKGLEWIACMSTSSGSTYDANWAKGRFTISKTSSTTVTLQMTSLTAADTATYFCARDVGGSTTYFDLWGPGTLVTVSS VL: AYDMTQTPASVSEPVGGTVTIKCQASQSISNELSWYQQKPGQPPKLLIYRASTLASGVPSRFKGSGSGTQFTLTINGVECADAATYYCQQGYSISNVDNTFGGGTEVVVKG", "Av. Resp.": 330}
{"Binder": "rabbit anti-human IgG monoclonal antibody clone 9E6 (antibody, V domains shown) VH: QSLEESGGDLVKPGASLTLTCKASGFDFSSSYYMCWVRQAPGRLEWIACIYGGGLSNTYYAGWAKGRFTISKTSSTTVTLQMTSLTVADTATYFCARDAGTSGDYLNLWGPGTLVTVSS VL: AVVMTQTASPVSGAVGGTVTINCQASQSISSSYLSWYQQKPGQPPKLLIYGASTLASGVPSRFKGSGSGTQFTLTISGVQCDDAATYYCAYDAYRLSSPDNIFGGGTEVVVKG", "Av. Resp.": 327}

q: Any idea what Av. Resp. was measured for rabbit anti-human IgG monoclonal antibody clone 16F5 (antibody, V domains shown) VH: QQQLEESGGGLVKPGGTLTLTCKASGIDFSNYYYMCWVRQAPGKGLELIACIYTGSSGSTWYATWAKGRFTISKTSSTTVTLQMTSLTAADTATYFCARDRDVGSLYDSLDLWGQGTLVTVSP VL: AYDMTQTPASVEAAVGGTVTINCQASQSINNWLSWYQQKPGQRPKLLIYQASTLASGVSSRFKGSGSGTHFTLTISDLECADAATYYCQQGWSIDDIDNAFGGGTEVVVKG ?
a: 385
